Exercise: state measured TGI for each of the molecules provided.
- System: M14 melanoma
- ASSAY METHOD TEXT: NCI tumour cell line growth inhibition, 384-well format
Numbers only here, please. The scale is µM.

Q: Could you share which TGI value was measured for Cn1cncc1[C@@](N)(c1ccc(Cl)cc1)c1ccc2c(c1)c(-c1cccc(Cl)c1)cc(=O)n2C ?
Result: 2.21

Q: Any idea what its TGI is? The molecule is CCCN(CCC)C(=O)C1=Cc2ccc(-c3ccc(C(=O)N4CCCC4)cc3)cc2N=C(N)C1
Result: 13

Q: Endpoint output: TGI of C=C(c1ccc(N(C)C)cc1)c1ccc(N(C)C)cc1 . Value?
Result: 3.16

Q: Quick one: TGI of C[C@@H]1CN(C(=O)c2ccc(NC(=O)c3cc(O[C@H](C)c4c(Cl)ccc(F)c4Cl)c(N)nn3)cc2)C[C@H](C)N1 ?
Result: 6.48
